test: Toxicity liver stage against HepG2, at 10uM
Type: cell-based
Design: test concentration 10 uM, cell line HepG2-A16-CD81EGFP
stated conditions: human, HepG2-A16-CD81EGFP cells; read-out: INHIBITION
# cytotoxicity at 10 µM per entry

compound | units symbol | cytotoxicity at 10 µM
NC(=O)C1(CCCc2cccnc2)CCCN(c2ncccn2)C1 (configuration not stated) | % | 3.61
c1ccc2nc(N3CCCC3c3nnc4n3CCCCC4)cnc2c1 (configuration not stated) | % | -1.63
CCn1ccnc1CN1CCCN(C(=O)Cc2ccc(F)cc2)CC1 | % | -15.8
CNS(=O)(=O)CCNC(=O)[C@@]12CNC[C@@H]1CN(C1CCCC1)C2 | % | 1.3
COCc1csc(NC(=O)NCc2ccsc2)n1 | % | 4.53
Cn1cncc1-c1nnc([C@H]2CCN(Cc3ccc(F)c(F)c3)C2)o1 | % | 3.04
CC(C)N1CCN(C(=O)Cc2csc(-c3ccco3)n2)CC1 | % | -2.93
COc1ccc(-n2ccc(C(=O)N(C)C(C)C3(C)CC3)n2)cc1 (configuration not stated) | % | -2.41
Cc1cc(CN2CCCC(Cn3cncn3)C2)on1 (configuration not stated) | % | -25.2
Cc1noc(C2CCN(CC(=O)N3CCNC(=O)C3)CC2)n1 | % | 2.41
CCN(C(=O)C(C)S(=O)(=O)Cc1nc(C)no1)c1ccccc1 (configuration not stated) | % | 4.03
Cc1noc(C)c1C(=O)NCc1cc[nH]n1 | % | 9.31
CCN1CCn2cc(CNC(=O)c3cnn(C)c3)nc2C1 | % | 8.88
COCC(=O)N1CCC(Nc2ccnc3ccc(Cl)cc23)CC1 | % | 5.78
COc1ccccc1CNCc1nn(-c2ccccc2)c2c1CCC2 | % | 34.4
Cc1cc(CN2CCC(C(=O)O)(n3ccc(-c4ccco4)n3)CC2)on1 | % | -131
c1csc(CN2CCn3c(Cn4cncn4)cnc3C2)c1 | % | -71.7
CN(C)c1ncc(C2Nc3cc(Cl)ccc3C3=NCCCN32)cn1 (configuration not stated) | % | -32
COc1ccnc(NC(=O)c2cscc2C)c1 | % | -16
COc1ccc2c(c1)CC(NCCCn1cc(C)cn1)CC2 (configuration not stated) | % | 18
CC(C)(C)NC(=O)c1cccc(CN2CCS(=O)(=O)CC2)c1 | % | 4.5
CN(C)CCN1CCCC12CCN(C(=O)c1ccco1)CC2 | % | 1.49
O=C(NCCn1ccnc1)N1CCCC1c1ccncc1 (configuration not stated) | % | -10.9
Cc1nc([C@@H]2C[C@@H]3CCN(C(=O)c4occc4C)C[C@H]3O2)no1 | % | -1.04
O=C(O)CCNC(=O)C1(c2cccc(Br)c2)CCOCC1 | % | 6.92
Cc1oncc1C(=O)N1CCC2(C1)CN(c1cccnc1)C(=O)CN2C (configuration not stated) | % | -5.26
CCOC(=O)c1c(NC(=O)CN2CCN(C(C)=O)CC2)sc2c1CCC2 | % | -5.33
COCCN1CC(C(=O)N(C)Cc2cc(-c3cccnc3)no2)CC1=O (configuration not stated) | % | -1.99
Cc1nc(CN2C[C@@H]3CN(C(=O)Cc4ccccn4)C[C@@H]3C2)cs1 | % | -106
COc1ccc2c(ccn2CC(=O)Nc2n[nH]c(C(C)C)n2)c1 | % | -6.72
c1ccc(-c2nc(CN3CCCC(Cn4cncn4)C3)no2)cc1 (configuration not stated) | % | 3.71
CN(CCC1CCCCO1)c1nncc(-c2ccccc2)n1 (configuration not stated) | % | 1.37
CS(=O)(=O)Cc1ccc(CNc2ncc(C#N)cc2Cl)cc1 | % | 3.47
O=C(NC1CCc2ccccc2C1)N1CCN(C(=O)C2CCC2)CC1 (configuration not stated) | % | -5.59
Cn1cc(C2CC(=O)NC23CCN(C(=O)c2ccc[nH]2)CC3)cn1 (configuration not stated) | % | 8.94
O=C(NC1CCN(C2CC2)CC1)N1CCN(c2cnccn2)CC1 | % | -6.97
Cn1cc(CN2C[C@@H](N3CCCC3=O)[C@H]3OCCC[C@H]32)cn1 | % | 8.92
Cc1ccccc1CCC(=O)N1CCCC(c2cc(C(N)=O)[nH]n2)C1 (configuration not stated) | % | -11.3
Cc1ccc(-c2nnc(CN3CCCC(O)(CO)CC3)o2)n1C (configuration not stated) | % | -2.4
Cn1cc(CCC(=O)NCc2ccccc2OC(C)(C)C)cn1 | % | 6.67
COc1cccc(-c2n[nH]c3c2CN(C(=O)c2ccncc2)CC3)c1 | % | -5.55
Cc1ccc(CN(Cc2nc3c(cnn3C)c(=O)[nH]2)C2CC2)o1 | % | -1.92
Cc1nnc(N2C[C@@H]3CCCO[C@@H]3[C@H](N3CCCC3=O)C2)s1 | % | 17.4
CN(C)C(=O)C1SCCc2ccccc21 (configuration not stated) | % | 1.81
CN1CC[C@H](c2nnc(Cc3c[nH]c4ccccc34)o2)C1 | % | 4.84
CC(=O)N1Cc2nccn2CC(CNC(=O)c2cnccn2)C1 (configuration not stated) | % | -144
CCC(=O)N1CCCC(C(=O)NCc2noc(Cc3ccccc3)n2)C1 (configuration not stated) | % | -1.15
